Test system: apyrase
Assay: Screen for apyrase inhibitors (Method 1, in vitro phosphate-release absorbance assay)
Format: biochemical
Conditions: inhibitor conc at 1 mM stock, 1 hr room temperature, absorbance 630 nm; rounded average of two assay results
Method: Apyrase inhibitors useful as enhancers of pesticidal activity are assessed using an in vitro assay. […]
MEASURED QUANTITY: % Inhibition of Apyrase (%)
Quick note: give the figure in %, leave out the unit.

Solved entries (count: 2):
COc1ccccc1NC(=O)c1cccc(S(=O)(=O)N2CCc3ccccc32)c1 59
O=C(Nc1ccc2c(c1)OC1(CCCC1)O2)c1ccc(NS(=O)(=O)c2ccccc2)cc1 61

Continue with the next compound.
Per the records, this compound ( COc1ccccc1NS(=O)(=O)c1cccc(C(=O)Nc2c(C)nc(O)nc2O)c1 ) has % Inhibition of Apyrase equal to 59

----------
System: apyrase
Assay: Screen for apyrase inhibitors (Method 1, in vitro phosphate-release absorbance assay)
Format: biochemical
Details: inhibitor conc at 1 mM stock, 1 hr room temperature, absorbance 630 nm; rounded average of two assay results
MEASURED QUANTITY: % Inhibition of Apyrase

Example entries begin here.
COMPOUND	% Inhibition of Apyrase
Cc1cccc2c1N(C(=O)c1cccc(S(=O)(=O)N3CCc4ccccc43)c1)CCC2	56%
CC(=O)Nc1cccc(NC(=O)c2cccc(S(=O)(=O)N3c4ccccc4CC3C)c2)c1 (stereo not drawn)	42%
COc1ccc2c(c1)CCCN2C(=O)c1ccc(S(=O)(=O)Nc2ccc(F)cc2)cc1	76%
O=C(Nc1ccc(Cl)c(S(=O)(=O)N2CCOCC2)c1)c1ccc(S(=O)(=O)Nc2cccc(C(F)(F)F)c2)cc1	65%

Measured % Inhibition of Apyrase, Cc1ccc(NS(=O)(=O)c2ccc(C(=O)Nc3ccccc3C)cc2)cc1 : 54%

Summary for this compound, O=C(Nc1cccc(S(=O)(=O)Nc2ccc(Br)cc2)c1)c1ccc2c(c1)OCO2 : % Inhibition of Apyrase is 65%

% Inhibition of Apyrase measured on CCN(C(=O)c1ccc(S(=O)(=O)N2CCCc3ccccc32)cc1)c1ccccc1 = 47%

----------
Tested on: apyrase
Assay: Screen for apyrase inhibitors (Method 1, in vitro phosphate-release absorbance assay)
Type: biochemical
Conditions: inhibitor conc at 1 mM stock, 1 hr room temperature, absorbance 630 nm; rounded average of two assay results
Classify as follows. Reported % Inhibition of Apyrase greater than or equal to 50%: 1. Reported % Inhibition of Apyrase below: 0.

These recorded examples may help you get a feel for the data.
COMPOUND	TARGET ENTITY	CLASS NAME
Cc1cccc(NC(=O)c2ccc(NS(=O)(=O)c3ccc4c(c3)OCCO4)cc2)c1	apyrase	0
O=C(Nc1ccc2c(c1)OCO2)c1ccc(C(=O)Nc2ccc3c(c2)OCO3)cc1	apyrase	1
O=C(Nc1cccc(S(=O)(=O)Nc2ccc(I)cc2)c1)c1ccccn1	apyrase	1

Quick check, % Inhibition of Apyrase >= 50%? O=C(Nc1cccc(F)c1)c1cccc(S(=O)(=O)N2CCc3ccccc32)c1 1

Evaluate O=C(Nc1ccccc1Cl)c1cccc(NS(=O)(=O)c2cccs2)c1 : % Inhibition of Apyrase at minimum 50%? 0

For this compound, is measured % Inhibition of Apyrase 50% or higher? COc1ccc(C(=O)Nc2ccc(S(=O)(=O)Nc3ccc(Cl)cc3)cc2)cc1 1

Is reported % Inhibition of Apyrase greater than or equal to 50% here: Cc1cc(S(=O)(=O)Nc2ccc(C(=O)Nc3ccc4c(c3)OCO4)cc2)ccc1F 1

----------
System: apyrase
Assay: Screen for apyrase inhibitors (Method 1, in vitro phosphate-release absorbance assay)
Format: biochemical
Conditions: inhibitor conc at 1 mM stock, 1 hr room temperature, absorbance 630 nm; rounded average of two assay results
Known % Inhibition of Apyrase of a selection of molecules
Give a bare numeral; the unit % is implied.

Examples from the recorded data:
MOLECULE	% Inhibition of Apyrase / %
CN(c1ccccc1)S(=O)(=O)c1cccc(NC(=O)c2nn(C)c(=O)c3ccccc23)c1	15
COc1ccc(NS(=O)(=O)c2ccc(NC(=O)c3cc(Cl)cc(Cl)c3)cc2)cc1	49
O=C(Nc1cc2c(cc1Cl)OCO2)c1ccc(Cl)c(S(=O)(=O)N2CCc3ccccc32)c1	57
Cc1ccc(S(=O)(=O)Nc2cccc(NC(=O)c3ccc4c(c3)OCCO4)c2)cc1C	71
O=C(Nc1ccc(S(=O)(=O)Nc2ccccc2Cl)cc1)c1ccc(C(F)(F)F)cc1	67
O=C(Nc1cccc(F)c1)c1ccc(Cl)c(S(=O)(=O)N2CCc3ccccc32)c1	54
CC1Cc2ccccc2N1C(=O)c1cccc(S(=O)(=O)Nc2cc(C(F)(F)F)ccc2Cl)c1 (centres unmarked)	48
O=C(c1cccc(S(=O)(=O)Nc2ccc(F)cc2)c1)N1CCc2ccccc21	49
O=C(Nc1ccc(Cl)c(Cl)c1)c1ccc(NS(=O)(=O)c2ccc(F)c(F)c2)cc1	56
COC(=O)c1ccc(NC(=O)c2ccccc2S(=O)(=O)N(C)c2ccccc2)cc1	61

Value of % Inhibition of Apyrase reported for the molecule O=C(Nc1ccc2c(c1)OCO2)c1cccc(S(=O)(=O)N2CCc3ccccc32)c1 is 60

Given item O=C(Nc1cccc(NS(=O)(=O)c2ccc(Cl)cc2)c1)c1ccc2[nH]nnc2c1 , the value recorded as its % Inhibition of Apyrase is 65

Entry COc1ccc(C(=O)N2c3ccccc3CC2C)cc1S(=O)(=O)Nc1ccc(C)cc1 (centres unmarked) — recorded % Inhibition of Apyrase = 53

Lab book: % Inhibition of Apyrase of COc1ccc(NS(=O)(=O)c2cccc(NC(=O)c3cc4c(s3)CCC4)c2)cc1 noted as 50

response.value for O=C(Nc1ccccc1NS(=O)(=O)c1cccs1)c1cccc(Cl)c1 (field: % Inhibition of Apyrase) = 65

According to the records, this molecule Cc1ccc(NC(=O)c2ccc(NS(=O)(=O)c3ccc(F)c(F)c3)cc2)cc1 displays % Inhibition of Apyrase of 65

% Inhibition of Apyrase reported for this molecule O=C(Nc1cccc(S(=O)(=O)Nc2ccc(Cl)cc2)c1)c1ccc(=O)n(Cc2ccccc2)n1 : 53

Per the record, O=C(Nc1ccc2c(c1)OCO2)c1ccc(NS(=O)(=O)c2ccc(Br)cc2)cc1 has % Inhibition of Apyrase of 52

Query CC(C)n1ncc2cc(NC(=O)c3cccc(S(=O)(=O)Nc4ccc5c(c4)OCO5)c3)cnc21 yields % Inhibition of Apyrase of 52

----------
System: apyrase
Assay: Screen for apyrase inhibitors (Method 1, in vitro phosphate-release absorbance assay)
Format: biochemical
Details: inhibitor conc at 1 mM stock, 1 hr room temperature, absorbance 630 nm; rounded average of two assay results
MEASURED QUANTITY: % Inhibition of Apyrase (%)
Note: unit % is implicit; provide only the numeric part.

// solved cases for % Inhibition of Apyrase follow
Cc1cccc(NS(=O)(=O)c2ccc(C)c(C(=O)N3CCCc4ccccc43)c2)c1 58
O=C(Nc1ccccc1OC(F)F)c1ccc(NS(=O)(=O)c2ccccc2)cc1 14
O=C(Nc1cccc(S(=O)(=O)Nc2cccc(Cl)c2)c1)c1ccccn1 50
Cc1ccc(S(=O)(=O)N(C)c2ccc(C(=O)Nc3ccc4c(c3)OCCO4)cc2)cc1 51
Cc1cc(Cl)ccc1NC(=O)c1ccc(Cl)c(S(=O)(=O)Nc2ccc(Cl)cc2C)c1 65

Per the records, this molecule ( O=C(Nc1ccccc1[N+](=O)[O-])c1cc(S(=O)(=O)Nc2ccc(Br)cc2)ccc1Cl ) has % Inhibition of Apyrase equal to 13

In plain terms, Cc1ccccc1NS(=O)(=O)c1ccc(C(=O)Nc2ccc(Cl)cc2)cc1 has a documented % Inhibition of Apyrase of 21

Reported % Inhibition of Apyrase ( Cc1ccc(NC(=O)c2cccc(S(=O)(=O)Nc3ccccc3F)c2)c(F)c1 ) = 3

get_value(item= Cc1cc(F)c2c(c1)CCCN2C(=O)c1cccc(S(=O)(=O)N2CCc3ccccc32)c1 , readout=% Inhibition of Apyrase) returns 58

// COc1ccc(S(=O)(=O)N2CCc3ccccc32)cc1C(=O)Nc1ccc(Br)c(C)c1 : % Inhibition of Apyrase value = 59

The reported value for Cc1cccc(NS(=O)(=O)c2cc(C(=O)N3CCCc4ccccc43)ccc2C)c1 in terms of % Inhibition of Apyrase is 63

Short answer for O=C(Nc1ccc(S(=O)(=O)Nc2ccccc2Cl)cc1)c1ccc2c(c1)OCCO2 : % Inhibition of Apyrase was 47

Just so you know, measured % Inhibition of Apyrase for CCOC(=O)c1c(NC(=O)c2cccc(S(=O)(=O)Nc3cccc(Cl)c3)c2)sc2c1CCCC2 came out at 57

Record COc1ccccc1NS(=O)(=O)c1ccc(C(=O)Nc2cccc(C(F)(F)F)c2)cc1 . Reported % Inhibition of Apyrase: 29

----------
Catalogue of compounds with associated % Inhibition of Apyrase
Tested on: apyrase
Assay: Screen for apyrase inhibitors (Method 1, in vitro phosphate-release absorbance assay)
Type: biochemical
Details: inhibitor conc at 1 mM stock, 1 hr room temperature, absorbance 630 nm; rounded average of two assay results
Report the figure in % without appending any unit label.

COMPOUND	MEASURED
COc1ccc([N+](=O)[O-])cc1NC(=O)c1cccc(S(=O)(=O)N2CCc3ccccc32)c1	59
O=C(Nc1ccccc1)c1ccc(S(=O)(=O)Nc2ccccc2)cc1 [I-392, N-phenyl-4-(N-phenylsulfamoyl)benzamide]	59

Data point: CSc1cccc(NC(=O)c2cccc(S(=O)(=O)N3c4ccccc4CC3C)c2)c1 (stereo not drawn) ; % Inhibition of Apyrase = 59
